meta.source: ChEMBL document CHEMBL1201862

Assign GI50 to each entry below.
# Test system: SNB-78
# ASSAY EXPLANATION: NCI tumour cell line growth inhibition, 48 h
Activity calls are given as the source filed them. Cut-off read from the data, not from the text of the source: active = GI50 up to about 1.1 µM and inactive = higher.

Qu. Please look up its GI50: "CN(CCN(C)C(=O)CCn1ccc(=O)[nH]c1=O)C(=O)CCn1ccc(=O)[nH]c1=O"
Ans. > 100 µM (inactive)

Qu. Follow-up entry: O=C(O)C(Cc1ccccc1)N1C(=O)N/C(=C\c2ccc(F)cc2)C1=O (configuration not stated)
Ans. 18.4 µM (inactive)

Qu. Now consider "Cc1cc(C)nc(NS(=O)(=O)c2ccc(NC(=O)c3cccc4c(Nc5ccc(S(=O)(=O)Nc6nc(C)cc(C)n6)cc5)c5ccccc5nc34)cc2)n1" and answer again.
Ans. 39.6 µM (inactive)

Qu. Follow-up entry: "CCCCCCCC(=O)OC[C@H](C[As](=O)(O)O)OC(=O)CCCCCCC"
Ans. 14 µM (inactive)

Qu. Further, for COC(=O)[C@]12CC=C3O[C@@H]4OC5(CCCCC5)O[C@@H]4[C@H]3C1C(=O)C=CC2=O (some centres not stated) ?
Ans. 18.8 µM (inactive)

Qu. Check "CCCCCCCCCCCCCCCCNc1cccc2ccccc12" too.
Ans. > 100 µM (inactive)

Qu. Would you kindly repeat that for "O=S(=O)(O)c1ccc([Se][Se]c2ccc(S(=O)(=O)O)cc2)cc1" ?
Ans. > 100 µM (inactive)

Qu. Then what about the molecule "NC(=O)N=C(NCc1ccccc1)NCc1ccccc1" ?
Ans. > 100 µM (inactive)

Qu. And the next one, "O=C(/C=C\c1ccc(/C=C/C(=O)Nc2cccc(C3=NCCCN3)c2)cc1)Nc1cccc(C2=NCCCN2)c1" ?
Ans. > 100 µM (inactive)

Qu. Please give the result for "CN(C)C(=S)/N=c1\ssc(=S)n1Cc1ccco1" too.
Ans. 3.18 µM (inactive)

Qu. Moving on to "NC(=S)Nc1nnc(-c2ccc(-c3nnc(NC(N)=S)o3)cc2)o1"
Ans. > 100 µM (inactive)

Qu. Try this molecule next: "CSc1ccc(/C=C2\CN(C)C/C(=C\c3ccc(SC)cc3)C2=O)cc1"
Ans. 19.8 µM (inactive)

* * *

For each of the compounds below, state its GI50.
# Tested on: SNB-75
# ASSAY EXPLANATION: NCI tumour cell line growth inhibition, 48 h
Activity calls are given as the source filed them. Cut-off read from the data, not from the text of the source: active = GI50 up to about 1.1 µM and inactive = higher.

Qu. Request - read-out GI50 | tested on SNB-75 | compound COc1ccc(C2c3cc4c(cc3OC3(OC)COC(=O)C23)OCO4)c(OC)c1 (stereo not given)
Ans. 8.93 µM (inactive)

Qu. Query O=C(CCN1CCN(c2cccc(Cl)c2)CC1)N1CCc2c([nH]c3ccccc23)C1c1cccnc1 (stereo not given) next
Ans. 9.68 µM (inactive)

Qu. Repeat with "O=C(CCc1cc(O)cc(O)c1)NCCc1cc(OCc2ccccc2)cc(OCc2ccccc2)c1"
Ans. 11 µM (inactive)

Qu. Another compound to look at: "CCCCCCCCCc1c(Cl)nc(Cl)nc1Cl"
Ans. 15 µM (inactive)

Qu. Please give the result for "COC(=O)[C@H](Cc1c[nH]c2ccccc12)NC(=O)c1ccc(CNC(=O)/C=C/c2cccc(Oc3ccccc3)c2)cc1" too.
Ans. 79.1 µM (inactive)

* * *

# System: SF-539
# ASSAY EXPLANATION: NCI tumour cell line growth inhibition, 48 h
Activity calls are given as the source filed them. Rule as the data show it: active = GI50 up to about 1.1 µM and inactive = higher.
READOUT LABEL: GI50

Qu. If you can, please state the reported GI50 value of "Cc1cc(C)nc(NS(=O)(=O)c2ccc(NC(=O)c3cccc4c(Nc5ccc(S(=O)(=O)Nc6nc(C)cc(C)n6)cc5)c5ccccc5nc34)cc2)n1" .
Ans. 15.4 µM (inactive)

Qu. Same read-out for COc1ccc(/N=N/c2c(C)c(C#N)c(=S)n(C3OC(COC(C)=O)C(OC(C)=O)C(OC(C)=O)C3OC(C)=O)c2-c2ccccc2)cc1 (centres undefined) ?
Ans. > 10 µM (inactive)

Qu. Now consider "Cc1cccc2c1NC(=S)[C@@H]1CCCN1C2=O" and answer again.
Ans. > 100 µM (inactive)

Qu. Note, next up: "O=C(Nc1sccc1S(=O)(=O)c1ccc(Cl)cc1)c1ccccc1"
Ans. 60.1 µM (inactive)

Qu. Another molecule to check: "Cc1cccc(NC(=S)Nc2ccc(Cl)cc2)n1"
Ans. > 100 µM (inactive)

Qu. Another molecule: COc1cc2c(cc1OC)C(N(C)C)C(c1ccccc1)=C2Cl (centres undefined)
Ans. 20.5 µM (inactive)

Qu. And for CC(C)C1CC(O)O[C@@H]([C@@H](C)[C@H]2CC(=O)[C@@H]3[C@@H]4[C@@H](O)[C@H](O)[C@H]5[C@@H](O)[C@H](O)CC[C@]5(C)[C@H]4CC[C@]23C)C1 (some centres undefined) ?
Ans. > 100 µM (inactive)

Qu. // next record "COc1cccc(NC(=O)/C(CS(=O)(=O)CCC(C(C)=O)C(C)=O)=N/NC(C)(C)C)c1"
Ans. > 100 µM (inactive)

Qu. What do you get for "COc1cc(Br)c(/C=N\c2cccc3cc(OC)c(OC)cc23)cc1OC" ?
Ans. 22.1 µM (inactive)

Qu. Could you do the same for O=C1OC2CCCC[C@@H]2C2C[C@]34CCCCC3[C@@H](C(=O)O4)C12 (some centres undefined) , please?
Ans. > 100 µM (inactive)

Qu. Another molecule to look at: O=C(Nc1nc2ncn(CC(COc3ccccc3)OC(=O)c3ccccc3)c2c(=O)[nH]1)c1ccccc1 (centres undefined)
Ans. > 100 µM (inactive)

Qu. Same question for "CCCCC/C(C=O)=C\c1ccccc1" please.
Ans. > 100 µM (inactive)

Qu. Repeat for the following molecule: "Cc1csc2n(C)c(=O)c3ccccc3[n+]12"
Ans. > 100 µM (inactive)

Qu. Also "O=C1Nc2cc([N+](=O)[O-])ccc2C(=O)N2CCC[C@@H]12" ?
Ans. > 100 µM (inactive)

Qu. Another molecule to check: "COc1ccc2cc(C(=O)Nc3ccc(O)c(C(=O)O)c3)ccc2c1OC"
Ans. > 100 µM (inactive)

Qu. Again, but for "CCOC(=O)C1=C(C)N(Cc2ccccc2)C(C)=C(C(=O)OCC)C1c1ccccc1O"
Ans. 27.7 µM (inactive)

Qu. Entry to check: "Cc1ccc(S(=O)(=O)N/N=c2\c(C)c(C3=NS(=O)(=O)c4cc(S(N)(=O)=O)c(Cl)cc4N3)oc3c(Cl)cc(Cl)cc23)cc1"
Ans. > 100 µM (inactive)

Qu. Request: O=C([O-])C(O)C(O)C(O)C(O)C(=O)O.[K+] (centres undefined)
Ans. > 100 µM (inactive)

Qu. What would you report for "O=c1c2ccccc2c2c1c1c3ccccc3c(=O)c1c1c3ccccc3c(=O)c21" ?
Ans. > 100 µM (inactive)

* * *

# Tested on: DLD-1
# ASSAY EXPLANATION: NCI tumour cell line growth inhibition, 48 h
Calls of active or inactive are those of the source. Cut-off read from the data, not from the text of the source: active = GI50 up to about 1.1 µM and inactive = higher.
The reply should name one outcome from active, inactive

Qu. Call for entry "CCN(CC)CCNc1ccc2ncn3c4ccc(OC)cc4c(=O)c1c23" :
Ans. active

Qu. Let us now turn to OC(c1ccccc1)C1CC2C=CC1C2 (stereo unspecified)
Ans. inactive

Qu. Check "O=C(CC(=O)C(=O)CC(=O)OCc1ccccc1)OCc1ccccc1" too.
Ans. inactive

Qu. Same again, this time with "CC(=O)CC[N+](C)(C)C"
Ans. inactive

Qu. Follow-up entry: "COc1cc(Br)c(/C=N\c2cccc3cc(OC)c(OC)cc23)cc1OC"
Ans. inactive

Qu. Likewise for "O=C(c1ccc(Cl)cc1)N(C(=S)N1CCN(c2ccccc2)CC1)c1ccccc1" ?
Ans. inactive

* * *

# System: HOP-92
# ASSAY EXPLANATION: NCI tumour cell line growth inhibition, 48 h
Activity calls are given as the source filed them. Cut-off read from the data, not from the text of the source: active = GI50 up to about 1.1 µM and inactive = higher.
READOUT LABEL: GI50

Qu. GI50 for "COc1ccc2c3c(c(C(=O)O)oc13)CCC2" ?
Ans. > 100 µM (inactive)

Qu. And COc1cc(C2SCC(=O)N2c2cccc(Cl)c2)cc(OC)c1OC (configuration not stated) ?
Ans. 31.2 µM (inactive)

Qu. One more compound: CC(C)[Si](OCC/C=C/C1CCC(=O)C1C(O)C1CCCCC1)(C(C)C)C(C)C (configuration not stated)
Ans. 11.8 µM (inactive)

Qu. Would you kindly repeat that for "CCN(CC)CCC(=O)c1ccccc1" ?
Ans. 13.1 µM (inactive)

Qu. Would you kindly repeat that for "COc1ccc(OC)c2c(=S)c3ccccc3[nH]c12" ?
Ans. > 100 µM (inactive)

Qu. Could you do the same for "CCCCNc1nc(O)c2[nH]cnc2n1" , please?
Ans. > 100 µM (inactive)

Qu. Note, next up: "O=C(O)c1ccc(Nc2nc3cc(C(F)(F)F)ccc3n3cccc23)cc1"
Ans. 64.6 µM (inactive)

Qu. Try this compound too: "CS/C(=N\c1ccc([N+](=O)[O-])cc1C#N)NC(=O)c1ccccc1"
Ans. 46 µM (inactive)

Qu. Check "CCCCC/C(C=O)=C\c1ccccc1" too.
Ans. > 100 µM (inactive)

Qu. Input Nc1cn(C2OC(CC(c3ccccc3)(c3ccccc3)c3ccccc3)C(O)C2O)c(=O)[nH]c1=O (configuration not stated)
Ans. 12.7 µM (inactive)

Qu. // repeat for COC(=O)[C@]12CC=C3O[C@@H]4OC5(CCCCC5)O[C@@H]4[C@H]3C1C(=O)C=CC2=O (some centres not stated) and report
Ans. 18.7 µM (inactive)

Qu. Then this compound: Cc1ccc(NC(=O)CC2Sc3ccccc3NC2=O)cc1C (configuration not stated)
Ans. 26 µM (inactive)

Qu. Now give it for CC(C)CCCC(C)[C@H]1CC[C@H]2NCCCC[C@]12C (some centres not stated) too.
Ans. 3.48 µM (inactive)

Qu. Query Cc1cn(C2CC(O)C(Cn3cc(Cn4ncc(=O)[nH]c4=O)nn3)O2)c(=O)[nH]c1=O (configuration not stated) next
Ans. > 100 µM (inactive)

Qu. Field entry: "O=C(Nc1cc(Cl)c(I)c(Cl)c1)C(F)(F)F"
Ans. 20.3 µM (inactive)

Qu. Please give the result for "CN(C(=O)C1=CCC2(CC1)OCCO2)c1ccccc1I" too.
Ans. > 100 µM (inactive)

Qu. Note, next up: "CCOC(=O)CC/C(=N/Nc1ccc(Cl)cc1[N+](=O)[O-])C(=O)OCC"
Ans. 11.4 µM (inactive)
